Sourced from PubChem BioAssay

- EXPERIMENTAL SYSTEM: Regulator of G-protein signaling 16 (Homo sapiens) (UniProt O15492)
- MEASUREMENT DESCRIPTION: small molecules altering RGS protein interactions with GNAO1 – biochemical, multiplexed beads, flow cytometry, RGS4/7/8/16/19, primary screen (AID 1504);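 note: fluorescently labeled Galpha-o bound to GDP with aluminium fluoride binding biotinylated RGS beads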
- CONDITION CONTEXT: multiplexed bead flow cytometry, measured here: RGS16 interaction, at 10 µM
The other results are listed elsewhere or left out.
TEST READOUT: RGS16–Galpha-o binding response (%)
Numeric answer only, unit % assumed.

Write down RGS16–Galpha-o binding response measured for item CCOc1cc(C(=O)N2CCc3cc(OC)c(OC)cc3C2)ccc1OC(F)F
124

###

- EXPERIMENTAL SYSTEM: Guanine nucleotide-binding protein G(o) subunit alpha (Homo sapiens)
- MEASUREMENT DESCRIPTION: retest of RGS8-Galphao interaction hits – biochemical, multiplexed bead flow cytometry, single concentration, confirmation (AID 1836);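 note: Galphao activated as GDP AlF4 complex before binding bead RGS8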
- CONDITION CONTEXT: bead-based flow cytometry RGS8-Galphao binding, fluorescence; at 10 µM; actives lie on both sides
Some of the results follow.
TEST READOUT: binding response (% of control) (%)
Supply the numeric figure in %, leaving out any unit text.

Solved entries:
| MOLECULE | EXPERIMENTAL SYSTEM | binding response (% of control) / % |
| --- | --- | --- |
| FC(F)Oc1ccccc1C1CC(c2ccc(Br)s2)Nc2ncnn21 (stereo not given) | Guanine nucleotide-binding protein G(o) subunit alpha (Homo sapiens) | 99.3 |
| CN(C)CCNC(=O)/C(=C/c1cccc([N+](=O)[O-])c1)NC(=O)c1ccccc1 | Guanine nucleotide-binding protein G(o) subunit alpha (Homo sapiens) | 103 |
| C/C(=N\NS(=O)(=O)c1ccc(Br)cc1)c1cccs1 | Guanine nucleotide-binding protein G(o) subunit alpha (Homo sapiens) | 102 |
| Cc1c(CN2CCCC(C(=O)c3cccc(Cl)c3)C2)c(=O)n(-c2ccccc2)n1C (stereo not given) | Guanine nucleotide-binding protein G(o) subunit alpha (Homo sapiens) | 102 |
| Cc1c(Br)cc(C(=O)N2CCCCCC2)c(C)c1C | Guanine nucleotide-binding protein G(o) subunit alpha (Homo sapiens) | 102 |

Answer with the recorded binding response (% of control) for the molecule listed here: COc1ccccc1-n1c(-c2cc(-c3ccco3)[nH]n2)n[nH]c1=S
83.6

Please report binding response (% of control) for the following molecule: C=CCNc1nc(N)c(C(=C(C#N)C#N)c2ccccc2)s1
98.2

Please look at this molecule and report its binding response (% of control): O=C(CSc1ccc2nnc(-c3ccccc3)n2n1)N1CCCc2ccccc21
104

Specify binding response (% of control) for Oc1ccc(-c2onc3ccc(Cl)cc23)cc1 and stop.
92.4

Return value of binding response (% of control) for input COc1cc(C(=O)Nc2cc(C(F)(F)F)ccc2N2CCOCC2)ccc1O , no commentary.
104

###

- EXPERIMENTAL SYSTEM: Beta-adrenergic receptor kinase 1 (Homo sapiens)
- MEASUREMENT DESCRIPTION: GRK2 binders displacing RNA aptamer, biochemical, validation, human GRK2, bead flow cytometry (AID 488806)
- CONDITION CONTEXT: bead-bound GRK2, FAM-aptamer displacement, at 10 µM, stronger effect = higher value
Mark Condition met for reported aptamer binding inhibition of 3% or greater; mark Condition not met for anything smaller.

These recorded examples may help you get a feel for the data.
| COMPOUND | LABEL VALUE |
| --- | --- |
| CC(C)CN(C)Cc1c(C(=O)N2CCc3ccccc3C2)nc2ccc(Cl)cn12 | Condition not met |
| CS(=O)(=O)Nc1cccc(C(=O)CC2(O)C(=O)Nc3ccc(Br)cc32)c1 (stereo unspecified) | Condition met |
| CCOc1ccc(C(=O)NC(C)C2COc3ccccc3O2)cc1 (stereo unspecified) | Condition met |
| CNCCC(Oc1ccc(C(F)(F)F)cc1)c1ccccc1 (stereo unspecified) | Condition not met |
| CC(=O)Oc1cc2oc(=O)cc(C)c2cc1OC(C)=O | Condition met |

Dear colleague, could you confirm whether CCOc1ccc2oc(-c3ccccc3)c(C(=O)O)c2c1 has aptamer binding inhibition at or above 3%?
Condition met

Is aptamer binding inhibition at least 3%? Consider Cc1ccc2c(c1)C1(C(=O)N2)N2CCCC2C(C(=O)c2ccc3ccccc3c2)C12C(=O)Nc1ccccc12 (stereo unspecified)
Condition not met

Could you tell me if the measured aptamer binding inhibition of Cn1c(=O)c2nc3ccccc3nc2n(C)c1=O reaches 3% or more?
Condition not met
